- Assay remarks: qHTS of pediatric cancer cell lines to identify multiple opportunities for drug repurposing: Primary screen for LAN-5 cells (AID 1347100)
- Run parameters: LAN-5 neuroblastoma viability, CellTiter-Glo luminescence, 48 h; series mostly up to 46 µM
Records with an inconclusive call do not appear. The source made the active and inactive calls. The call rests on the fitted dose curve; in most records, active means well fitted cell-killing curve with a large enough effect; inconclusive means small, poorly fitted or top-dose-only effect; inactive means no such curve, though single readings can be large or run the other way.
Result category, one only: True = active, False = inactive

# Compound, Assigned category
rows = [
    ("Cc1cc2c(cc1C1(c3ccc(C(=O)O)cn3)CC1)C(C)(C)CCC2(C)C", "False"),
    ("Cc1ccc(NC(=O)c2ccc(CN3CCN(C)CC3)cc2)cc1Nc1nc(-c2cccnc2)cs1", "True"),
    ("Cc1c(-c2cccc3c(CCCOc4cccc5ccccc45)c(C(=O)O)n(Cc4cccnc4)c23)c(COc2ccc(N3CCN([S+](=O)([O-])N(C)C)CC3)cc2)nn1C", "True"),
    ("O=C1C(c2c(O)[nH]c3ccccc23)=Nc2ccccc21", "False"),
    ("Cn1cnc(-c2cc3nccc(Oc4ccc(NC(=S)NC(=O)Cc5ccccc5)cc4F)c3s2)c1", "True"),
]

I would be grateful if you could indicate the recorded call for COc1cc(Nc2nc3ccccc3nc2NS(=O)(=O)c2ccc(NC(=O)c3ccc(C)c(OC)c3)cc2)cc(OC)c1 .
False

I would be grateful if you could indicate the recorded call for CCC(C)SSc1ncc[nH]1 (stereo not drawn) .
True

I would be grateful if you could indicate the recorded call for CNC1[C@H](O)C(O[C@@H]2C(O)C(O[C@H]3O[C@H]([C@@H](C)NC)CC[C@H]3N)[C@@H](N)C[C@H]2N)OC[C@]1(C)O (stereo partly drawn) .
False

I would be grateful if you could indicate the recorded call for CN(C)CCN(C)C(=O)c1ccc(NC(=O)Nc2ccc(-c3nc(N4CCOCC4)c4ccn(CC(F)(F)F)c4n3)cc2)cc1 .
True

I would be grateful if you could indicate the recorded call for CC(C)n1c(C=C[C@H](O)C[C@H](O)CC(=O)O)c(-c2ccc(F)cc2)c2ccccc21 .
False

I would be grateful if you could indicate the recorded call for CO[C@H]1O[C@@H]2O[C@@]3(C)CC[C@@H]4[C@@H](C)CC[C@@H]([C@H]1C)[C@@]24OO3 .
True

I would be grateful if you could indicate the recorded call for Cn1c(=O)c(-c2c(Cl)cccc2Cl)cc2cnc(Nc3cccc(C(=O)O)c3)nc21 .
False

I would be grateful if you could indicate the recorded call for Cc1ccc(NC(=O)c2cccc(N(C)C)c2)cc1NC(=O)c1ccc(O)cc1 .
True

I would be grateful if you could indicate the recorded call for O=C1CCCC(=O)C1C(=O)c1ccc(C(F)(F)F)cc1[N+](=O)[O-] .
False

I would be grateful if you could indicate the recorded call for C[C@H]1[C@H](O)O[C@@H]2O[C@@]3(C)CC[C@@H]4[C@H](C)CC[C@@H]1[C@@]24OO3 .
True

I would be grateful if you could indicate the recorded call for CN1CCC[C@H]1CCO[C@](C)(c1ccccc1)c1ccc(Cl)cc1 .
False

I would be grateful if you could indicate the recorded call for CC1=C(CC(=O)O)c2cc(F)ccc2C1=Cc1ccc(S(C)=O)cc1 (stereo not drawn) .
True

I would be grateful if you could indicate the recorded call for CC[C@H](C)C(=O)O[C@H]1C[C@H](O)C=C2C=C[C@H](C)[C@H](CC[C@@H](O)C[C@@H](O)CC(=O)O)[C@H]21 .
False

* * *

- Assay remarks: NS1 protein of Zika virus - qHTS assay to identify small molecule inhibitors in human HEK 293 cells (AID 1347053); further: nearly all actives have a fitted effect of over 55% in size
- Run parameters: HEK293 ZIKV MR766 infection, NS1 TR-FRET, 24 h; series mostly up to 46.1 µM
Records with an inconclusive call do not appear. Calls of active or inactive are those of the source. The call rests on the fitted dose curve; in most records, active means well fitted inhibition curve with a large enough effect; inconclusive means small, poorly fitted or top-dose-only effect; inactive means no such curve, though single readings can be large or run the other way.
Result category, one only: y for active, n for inactive

Answered examples (3):
# Compound, Assigned category
rows = [
    ("COc1ccc2c(c1)CC[C@H]1[C@@H]2CC[C@]2(C)[C@@H](NCCCCCCN3C(=O)C=CC3=O)CC[C@H]12", "n"),
    ("CN[C@H]1[C@@H](O[C@@H]2[C@H](O[C@@H]3[C@@H](O)[C@@H](O)[C@@H](N=C(N)N)[C@@H](O)[C@@H]3N=C(N)N)O[C@H](C)[C@@]2(O)C=O)O[C@@H](CO)[C@@H](O)[C@H]1O", "n"),
    ("N[C@@H](CC(=O)N1CCn2c(nnc2C(F)(F)F)C1)Cc1cc(F)c(F)cc1F", "n"),
]

I would be grateful if you could indicate the recorded call for Cc1ccccc1C(C(=O)NC1CCCCC1)N(C(=O)CNc1ccc(C#N)cc1)c1cccc(F)c1 (centres undefined) .
n

I would be grateful if you could indicate the recorded call for CN[C@@H]1[C@@H](O)[C@@H](O[C@@H]2[C@@H](O)[C@H](O[C@H]3O[C@H](CN)[C@@H](O)[C@H](O)[C@@H]3O)[C@@H](N)C[C@@H]2NC(=O)[C@@H](O)CN)OC[C@]1(C)O .
n

I would be grateful if you could indicate the recorded call for O=C(O)c1nc(=O)[nH]c(=O)[nH]1 .
n

I would be grateful if you could indicate the recorded call for Cc1cc(C(C)Nc2ccccc2)c2nc(N3CCOCC3)cc(=O)n2c1 (centres undefined) .
n

I would be grateful if you could indicate the recorded call for Cc1nc(NC(=O)N2CCC[C@@H]2C(N)=O)sc1-c1csc(C(C)(C)C)n1 .
n

I would be grateful if you could indicate the recorded call for CCC(=C(c1ccc(O)cc1)c1ccc(OCCNC)cc1)c1ccccc1 .
n

I would be grateful if you could indicate the recorded call for CN1[C@H]2CC[C@H]1CC(OC(=O)c1c[nH]c3ccccc13)C2 (some centres undefined) .
n

I would be grateful if you could indicate the recorded call for CCc1cccc(CC)c1NC(=O)N1Cc2[nH]nc(NC(=O)c3ccc(N4CCN(C)CC4)cc3)c2C1 .
n

I would be grateful if you could indicate the recorded call for Cc1cc(-c2ncc(CC(=O)Nc3ccc(-c4cnccn4)cn3)cc2C)ccn1 .
n

I would be grateful if you could indicate the recorded call for CCOC(=O)N1c2ccc(C(F)(F)F)cc2[C@@H](N(Cc2cc(C(F)(F)F)cc(C(F)(F)F)c2)C(=O)OC)C[C@H]1CC .
n

I would be grateful if you could indicate the recorded call for CC[C@H](C=C[C@@H](C)[C@H]1CC[C@H]2[C@@H]3CC=C4C[C@@H](O)CC[C@]4(C)[C@@H]3CC[C@]12C)C(C)C .
n

I would be grateful if you could indicate the recorded call for O=C(NCCCCN1CCOCC1)c1cc2ccccc2o1 .
n

I would be grateful if you could indicate the recorded call for COc1cc(F)c(C(C)C)cc1-c1ccc(C(F)(F)F)cc1CN1C(=O)O[C@H](c2cc(C(F)(F)F)cc(C(F)(F)F)c2)[C@@H]1C .
n

I would be grateful if you could indicate the recorded call for CS(=O)(=O)c1ccc(C2=C(c3ccccc3)C(=O)OC2)cc1 .
n

I would be grateful if you could indicate the recorded call for Cc1nn(Cc2ccccc2Cl)c(C)c1CN(C)CC(O)COc1ccc(Cl)cc1 (centres undefined) .
n

I would be grateful if you could indicate the recorded call for COc1cc2nc(-c3cc(F)ccc3O)nc(N[C@@H]3CNC[C@@H]3C(C)(C)O)c2cc1OC .
y

I would be grateful if you could indicate the recorded call for O=[N+]([O-])c1ccc(Nc2ccccc2-c2ccccc2)c2nonc12 .
n

* * *

- Assay remarks: qHTS for identification of novel therapeutic agents for treatment of microphthalmiaassociated transcription factor (MiT) renal cell carcinoma (RCC) (AID 1963991);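 further: curves scaled with 100% = DMSO viability and 0% = empty wells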
- Run parameters: TFE3-RCC viability, CellTiter-Glo, 48 h; measured here: UOK124 Z-AUC; stronger effect = lower value
Records with an inconclusive call do not appear.
Quantity name: z-score
One number for each entry.

These recorded examples may help you get a feel for the data.
# Chemical smiles, z-score
rows = [
    ("Cc1cc(OCCCS(C)(=O)=O)cc(C)c1-c1cccc(COc2ccc3c(c2)OC[C@H]3CC(=O)O)c1", 0.159),
    ("CC(C)(CO)[C@@H](O)C(=O)NCCC(=O)O", 0.429),
    ("COc1nc(C)cnc1NS(=O)(=O)c1cccnc1-c1ccc(-c2nnco2)cc1", 0.956),
]

Give z-score for each listed item.
1. Cc1ccc(C(=O)N(CCCN)[C@@H](c2oc3cc(Cl)ccc3c(=O)c2Cc2ccccc2)C(C)C)cc1
2. COc1cc(C=CC(=O)O)ccc1O

1. -1.71
2. 0.112

Give z-score for each listed item.
1. Cc1ccc(S(=O)(=O)OCC(=O)Nc2ccc(C(=O)O)c(O)c2)cc1
2. CC(C)c1onc(-c2c(Cl)cccc2Cl)c1COc1ccc(C=Cc2cccc(C(=O)O)c2)c(Cl)c1

0.585
0.847

* * *

- Test system: MKL-1
- Assay remarks: qHTS assay to identify novel small-molecules to repurpose for Merkel cell carcinoma treatment (AID 1296009); further: nearly all actives have a fitted effect of over 60% in size
- Run parameters: MCC and control cell lines, CellTiter-Glo viability, 72 h; series mostly up to 46 µM
Inconclusive results are not listed. Active and inactive are the calls of the source. The call rests on the fitted dose curve; in most records, active means well fitted inhibition curve with a large enough effect; inconclusive means small, poorly fitted or top-dose-only effect; inactive means flat fitted curve, though single readings scatter.
Result category, one only: true (1) (active), false (0) (inactive)

Answered examples (5):
# Chemical smiles, Assigned category
records = [
    ("O=C(O)c1ccc(O)c2ncc(N3CCOCC3)cc12", "true (1)"),
    ("CNc1nc(Nc2ccc(C(=O)N3CCOCC3)cc2OC)ncc1Cl", "false (0)"),
    ("Cc1ccc(C2=Nc3ccc(Cl)cc3OC2)cc1", "true (1)"),
    ("CC1CCN(c2cc(N3CCN(C)CC3)ccc2NC(=O)c2cc(C#N)c[nH]2)CC1", "false (0)"),
    ("O=C1C(c2c(O)[nH]c3ccccc23)=Nc2ccccc21", "false (0)"),
]

I would be grateful if you could indicate the recorded call for O=[N+]([O-])c1ccc(Nc2ccccc2-c2ccccc2)c2nonc12 .
false (0)

I would be grateful if you could indicate the recorded call for CC(C)=CCCC(C)=CCCC(C)=CCCC(C)=CCCC(C)=CCCC(C)=CCCC(C)=CCCC(C)=CCCC(C)=CCO .
false (0)

I would be grateful if you could indicate the recorded call for CC(=O)N1CCN(c2ccc(OCc3nn(C)c(C)c3-c3cccc4c(CCCOc5cc(C)c(Cl)c(C)c5)c(C(=O)O)n(Cc5cccnc5)c34)cc2)CC1 .
false (0)

I would be grateful if you could indicate the recorded call for CCN1CCN(c2ccc(Nc3cc(N(C)C(=O)Nc4c(Cl)c(OC)cc(OC)c4Cl)ncn3)cc2)CC1 .
false (0)

I would be grateful if you could indicate the recorded call for CN(C)CCN(Cc1ccc(Cl)cc1)c1ccccn1 .
false (0)
